Taken from ChEMBL document CHEMBL4819044.

# protocol: in vivo
# condition description: cynomolgus monkey, po, 3 mg/kg
# Description: AUC (0 to infinity) in cynomolgus monkey at 3 mg/kg, po measured measured up to 72 hrs by LC/MS/MS analysis
value type: AUC(0-inf) at 72 h (µM·h)
One number for each entry, in µM·h.

Determine its reported AUC(0-inf) at 72 h: "CCOCc1nc(O)c(-c2nnc(Cc3ccc(Cl)cn3)o2)c(O)c1-c1c(OC)cccc1OC"
15.3

###

# protocol: in vivo
# condition description: Sprague-Dawley, rat, po, 3 mg/kg
# Description: Cmax in Sprague-Dawley rat at 3 mg/kg, po measured up to 48 hrs by LC/MS/MS analysis
value type: Cmax at 48 h (µM)
Give bare numbers, in µM.

Specify measured Cmax at 48 h for "CCOCc1nc(O)c(-c2nnc(Cc3ccc(Cl)cn3)o2)c(O)c1-c1c(OC)cccc1OC" .
5.6

###

# protocol: in vivo
# condition description: cynomolgus monkey, po, 3 mg/kg
# Description: Cmax in cynomolgus monkey at 3 mg/kg, po measured measured up to 48 hrs by LC/MS/MS analysis
value type: Cmax at 48 h

Respond only with Cmax at 48 h recorded for CCOCc1nc(O)c(-c2nnc(Cc3ccc(Cl)cn3)o2)c(O)c1-c1c(OC)cccc1OC [BMS-986224]
1.5 µM

###

# protocol: Stability in monkey liver microsomes assessed as parent compound remaining at 30 uM incubated for 45 mins
# Format: ADME, Macaca mulatta, Microsome
# condition description: rhesus monkey, read-out: Stabilty
value type: remaining at 0.75 h, 30 µM

Specify measured remaining at 0.75 h, 30 µM for "CCOCc1nc(O)c(-c2nnc(Cc3ccc(Cl)cn3)o2)c(O)c1-c1c(OC)cccc1OC" .
> 95%

###

# protocol: Stability in human liver microsomes assessed as parent compound remaining at 30 uM incubated for 45 mins
# Format: ADME, Microsome
# condition description: read-out: Stabilty
value type: remaining at 0.75 h, 30 µM

Specify remaining at 0.75 h, 30 µM for CCOCc1nc(O)c(-c2nnc(Cc3ccc(Cl)cn3)o2)c(O)c1-c1c(OC)cccc1OC [BMS-986224] and stop.
> 95%

###

# protocol: Metabolic stability in human liver microsomes assessed as parent compound remaining incubated for 10 mins in presence of NADPH by triple quadrupole mass spectrometry
# Format: ADME, Microsome
# condition description: read-out: Stabilty
Please note: remaining at 10 min exactly at 90% is False. Only values below 90% get True.

Recorded results for 2 compounds are shown here.
molecular string	discrete label
CCCCc1[nH]c(=O)c(-c2nc(Cc3ccccc3)no2)c(O)c1-c1c(OC)cccc1OC	True
COc1cccc(OC)c1-c1c(C2CCCC2)[nH]c(=O)c(-c2nnc(Cc3ccc(Cl)cc3)o2)c1O	True

Threshold test, remaining at 10 min < 90%: "CCCCc1[nH]c(=O)c(-c2nnc(Cc3ccccc3)o2)c(O)c1-c1c(OC)cccc1OC"
True

Hello, I'm reviewing records and need to know if remaining at 10 min of "COCCc1[nH]c(=O)c(-c2nnc(Cc3ccc(Cl)cc3)o2)c(O)c1-c1c(OC)cccc1OC" is below 90%. Could you check?
True

In the record for "CCCCc1nc(O)c(-c2nnc(Cc3ccccc3Cl)o2)c(O)c1-c1c(OC)cccc1OC" , is remaining at 10 min less than 90%?
True

Given "CCOCc1nc(O)c(-c2nnc(Cc3ccc(Cl)cc3)o2)c(O)c1-c1c(OC)cccc1OC" , is recorded remaining at 10 min strictly lower than 90%?
False

###

# protocol: Half life in cynomolgus monkey at 3 mg/kg, po measured measured up to 72 hrs by LC/MS/MS analysis
# condition description: in vivo
value type: half-life at 72 h

Respond only with half-life at 72 h recorded for "CCOCc1nc(O)c(-c2nnc(Cc3ccc(Cl)cn3)o2)c(O)c1-c1c(OC)cccc1OC"
3.6 h
